# protocol: Inhibition of C-terminal TQ5WS-labelled QWAREIGAQLRRMADDLNAQY binding to human C-terminal Cy5-labelled Mcl-1 V321C/C286S mutant (171 to 321 residue) incubated for 2 hrs by fluorescence quenching assay
outcome-measure: Ki (nM)

>  <mol>
Cc1ccccc1-c1nccc(COc2ccccc2C[C@@H](Oc2ncnc3sc(-c4ccc(F)cc4)c(-c4ccc(OCCN5CCN(C)CC5)c(Cl)c4C)c23)C(=O)O)n1

>  <value-measured>
0.055

$$$$
>  <mol>
CC#Cc1sc2ncnc(N[C@H](Cc3ccccc3OCc3ccnc(-c4ccccc4OC)n3)C(=O)O)c2c1-c1ccc(OCCN2CCN(C)CC2)c(Cl)c1C

>  <value-measured>
0.014

$$$$
>  <mol>
Cc1nc(-c2sc3ncnc(O[C@H](Cc4ccccc4)C(=O)O)c3c2-c2ccc(OCCN3CCN(C)CC3)c(Cl)c2C)cs1

>  <value-measured>
50

$$$$
>  <mol>
Cc1c(-c2c(-c3ccc(F)cc3)sc3ncnc(O[C@H](Cc4ccccc4OCc4ccnc(N5CCOCC5)n4)C(=O)O)c23)ccc(OCCN2CCN(C)CC2)c1Cl

>  <value-measured>
0.64

$$$$
>  <mol>
COc1ccccc1C[C@@H](Oc1ncnc2sc(-c3ccc(Br)o3)c(-c3ccc(OCCN4CCN(C)CC4)c(Cl)c3C)c12)C(=O)O

>  <value-measured>
3.5

$$$$

a: CCn1nccc1COc1ccccc1C[C@@H](Oc1ncnc2sc(-c3ccc(F)cc3)c(-c3ccc(OCCN4CCN(C)CC4)c(Cl)c3C)c12)C(=O)O
b: CC(=O)c1sc2ncnc(O[C@H](Cc3ccccc3)C(=O)O)c2c1-c1ccc(OCCN2CCN(C)CC2)c(Cl)c1C
c: Cc1c(-c2c(-c3ccc(F)o3)sc3ncnc(O[C@H](Cc4ccccc4OCC(F)(F)F)C(=O)O)c23)ccc(OCCN2CCN(C)CC2)c1Cl
d: COc1ccccc1C[C@@H](Oc1ncnc2sc(-c3ccc(F)c(F)c3F)c(-c3ccc(OCCN4CCN(C)CC4)c(Cl)c3C)c12)C(=O)O
Enquiry: Put the compounds in ascending order of Ki. Rank the items, then write their labels in that order.
Return: a, c, d, b
(a: 0.34 nM, c: 0.9 nM, d: 9 nM, b: 33 nM)

a: Cc1c(-c2c(-c3ccc(F)cc3)sc3ncnc(O[C@H](Cc4ccccc4OCc4ccnn4CC(F)(F)F)C(=O)O)c23)ccc(OCCN2CCN(C)CC2)c1Cl
b: Cc1cnccc1-c1nccc(COc2ccccc2C[C@@H](Oc2ncnc3sc(-c4ccc(F)cc4)c(-c4ccc(OCCN5CCN(C)CC5)c(Cl)c4C)c23)C(=O)O)n1
c: CCCCn1nccc1COc1ccccc1C[C@@H](Oc1ncnc2sc(-c3ccc(F)o3)c(-c3ccc(OCCN4CCN(C)CC4)c(Cl)c3C)c12)C(=O)O
d: COc1ccccc1C[C@@H](Oc1ncnc2sc(-c3ccc(Cl)o3)c(-c3ccc(OCCN4CCN(C)CC4)c(Cl)c3C)c12)C(=O)O
Enquiry: Arrange the 4 entries by Ki so the values rise. // rank by listing labels in the order requested
Return: c, b, a, d

a: CC#Cc1sc2ncnc(O[C@H](Cc3ccccc3OCc3ccnn3CCCC)C(=O)O)c2c1-c1ccc(OCCN2CCN(C)CC2)c(Cl)c1C
b: CC#Cc1sc2ncnc(O[C@H](Cc3ccccc3OC)C(=O)O)c2c1-c1ccc(OCCN2CCN(C)CC2)c(Cl)c1C
c: Cc1c(-c2c(-c3ccc(F)o3)sc3ncnc(O[C@H](Cc4ccccc4OCc4ccnn4C(C)C)C(=O)O)c23)ccc(OCCN2CCN(C)CC2)c1Cl
Enquiry: Hey, quick one: sort these by Ki, largest value first please. Put the labels in the requested order and list them out.
Return: b, c, a
(b: 12 nM, c: 0.12 nM, a: 0.023 nM)

P: CC(C)=Cc1sc2ncnc(O[C@H](Cc3ccccc3)C(=O)O)c2c1-c1ccc(OCCN2CCN(C)CC2)c(Cl)c1C
Q: CCc1sc2ncnc(O[C@H](Cc3ccccc3OC)C(=O)O)c2c1-c1ccc(OCCN2CCN(C)CC2)c(Cl)c1C
R: CC#Cc1sc2ncnc(O[C@H](Cc3ccccc3OCc3ccnc(-c4ccccc4OC)n3)C(=O)O)c2c1-c1ccc(OCCN2CCN(C)CC2)c(Cl)c1C
Enquiry: Please list the entries, largest Ki first. Your answer should be the labels, listed in the requested order.
Return: P, Q, R
(P: 34 nM, Q: 20 nM, R: 0.011 nM)
